System: Candida glabrata 20/I
protocol: In vitro antifungal susceptibility, broth microdilution
Format: cell-based
measurementSetup: Nakaseomyces glabratus, 24 h and 48 h, only one value presented (inactive), read-out: MIC (IC80) CG
observedProperty: MIC

Entry "CNC(=S)N/N=C/c1cccc(Cl)c1Cl" : MIC on Candida glabrata 20/I = > 500 µM

# lookup: "CNC(=S)N/N=C/c1ccc(Br)cc1" on Candida glabrata 20/I, MIC = > 500 µM

Assay Candida glabrata 20/I, sample "S=C(N/N=C/c1cccc(Cl)c1Cl)Nc1ccccc1" , MIC read: > 125 µM

====

Recorded measurements of log k, one per entry
protocol: Lipophilicity determination using RP-HPLC (capacity factor, log k)
Assay type: physicochemical
measurementSetup: C18, MeOH 55%/H2O 45%
The response must contain the number and no unit.

Guide cases for log k, answers given:
{"columns": ["structureSmiles", "observedProperty", "recordedResult"],
 "data": [
  ["CCNC(=S)N/N=C/c1cccc(Cl)c1Cl", "log k", 0.7958],
  ["Oc1ccc2cccnc2c1C=NNC(=S)Nc1ccccc1", "log k", 0.6748],
  ["NC(=S)N/N=C/c1ccc(Cl)c(Cl)c1", "log k", 0.6974],
  ["Oc1cccc2ccc(C=NNC(=S)Nc3ccccc3)nc12", "log k", 0.7548],
  ["CCNC(=S)NN=Cc1ccc2cccc(O)c2n1", "log k", 0.6810]
]}

Just so you know, measured log k for "CCNC(=S)NN=Cc1ccc2ccccc2n1" came out at 0.6892

response.value for "CN(C)C(=S)NN=Cc1c(O)ccc2cccnc12" (field: log k) = 0.5831

====

Test system: Candida tropicalis 156
protocol: In vitro antifungal susceptibility, broth microdilution
Type: cell-based
measurementSetup: Candida tropicalis, 156, 48 h; read-out: MIC (IC80) CT
Recorded measurements of MIC, one per entry

Examples from the recorded data:
{"columns": ["compound", "targetOrTestSystem", "MIC"],
 "data": [
  ["NC(=S)N/N=C/c1ccc(Br)cc1", "Candida tropicalis 156", "> 500 µM"],
  ["CN(C)C(=S)NN=Cc1c(O)ccc2cccnc12", "Candida tropicalis 156", "> 250 µM"],
  ["CNC(=S)NN=Cc1c(O)ccc2cccnc12", "Candida tropicalis 156", "> 500 µM"],
  ["Oc1ccc2cccnc2c1C=NNC(=S)Nc1ccccc1", "Candida tropicalis 156", "125 µM"],
  ["CN(C)C(=S)N/N=C/c1ccc(Cl)c(Cl)c1", "Candida tropicalis 156", "500 µM"],
  ["CN(C)C(=S)N/N=C/c1ccc(Br)cc1", "Candida tropicalis 156", "> 500 µM"]
]}

MIC recorded for this compound, "Oc1cccc2ccc(C=NNC(=S)Nc3ccccc3)nc12" , is > 125 µM

For "CN(C)C(=S)NN/C=C/c1ccc2ccccc2n1" the compound record lists MIC as 7.81 µM

Reported MIC of OC(Cn1cncn1)(Cn1cncn1)c1ccc(F)cc1F [FLU, Fluconazole, reference compound] : > 125 µM

Please fill in: MIC reported for "CCNC(=S)NN=Cc1c(O)ccc2cccnc12" = > 500 µM

====

System: Absidia corymbifera 272
protocol: In vitro antifungal susceptibility, broth microdilution
Assay type: cell-based
measurementSetup: Lichtheimia corymbifera, 272; 24 h and 48 h, only one value presented (inactive); read-out: MIC (IC50) AC
observedProperty: IC50

{"columns": ["structureSmiles", "IC50"],
 "data": [
  ["CNC(=S)NN=Cc1ccc2ccccc2n1", "> 500 µM"],
  ["CCNC(=S)N/N=C/c1ccc(Cl)c(Cl)c1", "> 500 µM"],
  ["NC(=S)N/N=C/c1cccc(Cl)c1Cl", "> 125 µM"],
  ["S=C(N/N=C/c1ccc(Br)cc1)Nc1ccccc1", "> 500 µM"],
  ["CNC(=S)N/N=C/c1ccc(Br)cc1", "> 500 µM"],
  ["CCNC(=S)N/N=C/c1cccc(Cl)c1Cl", "> 500 µM"],
  ["NC(=S)N/N=C/c1ccc(Cl)c(Cl)c1", "> 500 µM"]
]}

Read the next record carefully.
Record "S=C(N/N=C/c1cccc(Cl)c1Cl)Nc1ccccc1" ; system Absidia corymbifera 272; IC50 = > 125 µM
